Values from patent US5808139A

Recorded IC50 values for a group of molecules are listed next.
Tested on: progesterone receptor (T47D cells)
Assay remarks: Antagonist assay in T47D (human breast cancer) cells (Tables 1 and 2)
Type: cell-based
Condition parameters: concentration required to reduce the maximal response by 50%, read-out: Potency (IC50), T47D cells
The response must be a number in nM with no trailing unit.

C=C1C=C(C)CC(C)(C)C1Cc1cc(OC)c(Br)cc1OC(C)=O (stereo not drawn) = 775
C=C1C=C(C)[C@@H](CCO)C(C)(C)[C@@H]1Cc1cc(OC)c(Br)cc1O (relative stereo) = 3600
C=C1CCCC(C)(C)C1Cc1cc(OC)c(Br)cc1OC(=O)OC (stereo in doubt) [R] = 250
C=C1CCCC(C)(C)C1Cc1cc(OC)c(Br)cc1OC(=O)c1ccccc1 (stereo in doubt) = 300

(Q) I'd like to know its IC50. The molecule in question is C=C1C[C@H](C)CC(C)(C)[C@@H]1Cc1cc(OC)c(Br)cc1O (relative stereo)
(A) 7190

(Q) I'd like to know its IC50. The molecule in question is C=C1C=C[C@@H](C)C(C)(C)[C@@H]1Cc1cc(OC)c(Br)cc1OC(C)=O (relative stereo)
(A) 325

* * *

Test system: progesterone receptor (T47D cells)
Assay remarks: Antagonist assay in T47D (human breast cancer) cells (Tables 1 and 2)
Format: cell-based
Condition parameters: concentration required to reduce the maximal response by 50%, read-out: Potency (IC50), T47D cells
Recorded pIC50 values for a group of compounds are listed next.
Interpret pIC50 as the negative base-10 log of the concentration measured in mol/L.

C=C1CCC(C)(C)C1Cc1cc(OC)c(Br)cc1O (stereo not drawn) [P] = 6.56
C=C1[C@H](O)C[C@@H](Br)C(C)(C)[C@@H]1Cc1cc(OC)c(Br)cc1O [E] = 6.32
C=C1C=CCC(C)(C)C1Cc1cc(OC)c(Br)cc1OC(C)=O (stereo not drawn) [L] = 6.70
C=C1C[C@H](CCCO)CC(C)(C)[C@@H]1Cc1cc(OC)c(Br)cc1O (relative stereo) [X] = 6.68
C=C1C[C@@](C)(CO)CC(C)(C)[C@@H]1Cc1cc(OC)c(Br)cc1O (relative stereo) [HH] = 5.96
C=C1CCCC(C)(C)C1Cc1cc(OC)c(Br)cc1OC(C)=O (stereo in doubt) [B] = 7.07
C=C1CC[C@@H](C)C(C)(C)[C@@H]1Cc1cc(OC)c(Br)cc1O (relative stereo) [LL] = 6.30
C=C1CC[C@@H](Br)C(C)(C)[C@@H]1Cc1cc(OC)c(C=O)cc1O [NN] = 5.74

Moving on to the next compound.
(Q) API: value(readout=pIC50, system=progesterone receptor (T47D cells)) for record C=C1C[C@H](CCC2OCCO2)CC(C)(C)[C@@H]1Cc1cc(OC)c(Br)cc1O (relative stereo) [W]
(A) 6.42

* * *

Measurement target: human progesterone receptor (Homo sapiens)
Sequence (P06401 whole entry): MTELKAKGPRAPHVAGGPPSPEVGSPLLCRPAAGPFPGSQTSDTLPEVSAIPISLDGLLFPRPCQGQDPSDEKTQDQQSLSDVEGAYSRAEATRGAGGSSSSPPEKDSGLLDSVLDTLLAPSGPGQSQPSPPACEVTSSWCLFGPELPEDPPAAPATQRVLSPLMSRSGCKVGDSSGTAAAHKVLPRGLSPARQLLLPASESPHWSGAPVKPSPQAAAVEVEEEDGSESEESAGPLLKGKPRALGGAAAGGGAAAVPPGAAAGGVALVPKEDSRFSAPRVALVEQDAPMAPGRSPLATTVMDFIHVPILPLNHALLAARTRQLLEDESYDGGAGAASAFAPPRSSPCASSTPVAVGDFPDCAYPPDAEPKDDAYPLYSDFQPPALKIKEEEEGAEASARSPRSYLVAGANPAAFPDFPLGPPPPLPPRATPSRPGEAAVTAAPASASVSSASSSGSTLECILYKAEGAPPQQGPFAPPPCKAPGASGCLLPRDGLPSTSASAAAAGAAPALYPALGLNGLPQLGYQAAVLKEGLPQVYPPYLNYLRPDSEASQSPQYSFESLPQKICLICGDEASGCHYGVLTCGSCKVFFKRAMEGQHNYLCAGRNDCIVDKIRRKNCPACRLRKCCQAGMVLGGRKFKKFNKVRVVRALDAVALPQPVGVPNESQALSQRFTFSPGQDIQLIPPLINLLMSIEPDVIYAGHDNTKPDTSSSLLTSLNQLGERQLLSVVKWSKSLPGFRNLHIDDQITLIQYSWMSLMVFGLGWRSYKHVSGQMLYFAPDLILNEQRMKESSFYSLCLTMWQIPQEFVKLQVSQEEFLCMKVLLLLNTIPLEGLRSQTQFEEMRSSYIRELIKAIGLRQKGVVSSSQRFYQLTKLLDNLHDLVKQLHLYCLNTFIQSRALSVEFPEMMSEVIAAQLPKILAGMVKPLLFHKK
Assay remarks: Progesterone receptor binding (displacement of 3H-progesterone, whole cell extract of transfected CV-1 cells)
Endpoint name: Kd (nM)
The response must be a number in nM with no trailing unit.

Worked cases, Kd given:
C=C1C=C(C)[C@@H](CCO)C(C)(C)[C@@H]1Cc1cc(OC)c(Br)cc1O (relative stereo) [JJ] = 625
C=C1CC[C@@H](Br)C(C)(C)[C@@H]1Cc1cc(OC)c(Br)cc1O [SO-53, (3R)-cyclocymopol monomethyl ether] = 450
COc1cc(CC2C(C)(C)CC(C)=CC23CC3)c(OC(C)=O)cc1Br (stereo not shown) [DD] = 104

Moving on to the next compound.
(Q) I'd like to know its Kd. The compound in question is C=C1C=C(C)CC(C)(C)C1Cc1ccc([N+](=O)[O-])cc1 (stereo not shown) [I]
(A) 55
